Target: Cytochrome P450 11B1, mitochondrial (Homo sapiens)
Sequence (P15538 whole entry): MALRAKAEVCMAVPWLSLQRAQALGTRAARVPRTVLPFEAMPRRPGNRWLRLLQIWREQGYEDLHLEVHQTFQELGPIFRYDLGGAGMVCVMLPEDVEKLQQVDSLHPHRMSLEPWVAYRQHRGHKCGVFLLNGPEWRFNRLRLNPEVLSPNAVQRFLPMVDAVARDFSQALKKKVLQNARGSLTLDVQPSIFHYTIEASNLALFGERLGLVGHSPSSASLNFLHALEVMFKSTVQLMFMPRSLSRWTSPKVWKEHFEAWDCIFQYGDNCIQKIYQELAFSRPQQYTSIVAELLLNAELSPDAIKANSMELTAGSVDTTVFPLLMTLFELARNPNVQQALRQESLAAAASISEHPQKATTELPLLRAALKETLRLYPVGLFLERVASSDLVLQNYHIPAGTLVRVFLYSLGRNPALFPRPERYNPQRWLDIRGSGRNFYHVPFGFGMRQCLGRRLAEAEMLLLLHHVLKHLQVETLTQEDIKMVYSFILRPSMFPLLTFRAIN
Experiment: Inhibition of human recombinant CYP11B1 using 11-deoxycortisol as substrate by cell-based assay
VALUE TYPE: IC50 (nM)

[1] N#Cc1ccc([C@H]2CCCCc3cncn32)c(-c2ccc(F)cc2)c1
[2] N#Cc1ccc([C@H]2CCCCc3cncn32)c(F)c1
[3] Cc1cc(C#N)ccc1[C@H]1CCc2cncn21
Input line: // sort listed items: IC50 descending Provide the labels, sequenced as the question asks.
Output line: 2, 3, 1

* * *

Sequence of the target: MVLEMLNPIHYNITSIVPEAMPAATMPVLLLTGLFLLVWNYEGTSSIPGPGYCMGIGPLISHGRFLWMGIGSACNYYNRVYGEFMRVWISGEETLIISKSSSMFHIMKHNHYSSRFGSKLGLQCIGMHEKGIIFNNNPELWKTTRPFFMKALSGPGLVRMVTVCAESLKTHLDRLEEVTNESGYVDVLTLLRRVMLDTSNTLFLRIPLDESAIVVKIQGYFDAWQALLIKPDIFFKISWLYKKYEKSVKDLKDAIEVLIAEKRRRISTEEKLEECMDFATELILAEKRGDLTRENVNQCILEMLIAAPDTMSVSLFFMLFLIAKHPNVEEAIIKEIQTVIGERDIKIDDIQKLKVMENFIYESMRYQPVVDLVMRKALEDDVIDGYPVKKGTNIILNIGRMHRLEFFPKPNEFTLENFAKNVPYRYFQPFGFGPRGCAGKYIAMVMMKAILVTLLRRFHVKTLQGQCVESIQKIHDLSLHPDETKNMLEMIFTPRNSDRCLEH
VALUE TYPE: IC50 (nM)
Please reply with the bare figure in nM and do not write the unit itself.

Input line: Look at this compound and give its reported IC50. N#Cc1ccc([C@H]2CCCCc3cncn32)c(F)c1
Output line: 1100

* * *

Test: Oral bioavailability in Sprague-Dawley rat at 1 mg/kg
Format: ADME, organism-based
Conditions: in vivo
VALUE TYPE: bioavailability (%)

Completed entries (count: 5):
N#Cc1ccc([C@H]2CCc3cncn32)c(Cl)c1 = 59
N#Cc1ccc([C@H]2CCCCc3cncn32)c(-c2ccc(F)cc2)c1 = 1
COC(=O)[C@]1(c2ccc(C#N)cc2Cl)CCc2cncn21 = 1
COc1cc(C#N)ccc1[C@@]1(C(=O)N(C)Cc2ccc(F)cc2)CCc2cncn21 = 8
N#Cc1ccc([C@H]2CCc3cncn32)c(F)c1 = 42

[P] COc1cc(C#N)ccc1[C@H]1CCc2cncn21
[Q] Fc1ccc(-c2ccccc2[C@H]2CCCCc3cncn32)cc1
Input line: Recorded bioavailability values differ for P and Q ; which one is higher? The response must carry the label of the picked entry.
Output line: P

* * *

Target: Cytochrome P450 11B2, mitochondrial (Homo sapiens)
Sequence (P19099 whole entry): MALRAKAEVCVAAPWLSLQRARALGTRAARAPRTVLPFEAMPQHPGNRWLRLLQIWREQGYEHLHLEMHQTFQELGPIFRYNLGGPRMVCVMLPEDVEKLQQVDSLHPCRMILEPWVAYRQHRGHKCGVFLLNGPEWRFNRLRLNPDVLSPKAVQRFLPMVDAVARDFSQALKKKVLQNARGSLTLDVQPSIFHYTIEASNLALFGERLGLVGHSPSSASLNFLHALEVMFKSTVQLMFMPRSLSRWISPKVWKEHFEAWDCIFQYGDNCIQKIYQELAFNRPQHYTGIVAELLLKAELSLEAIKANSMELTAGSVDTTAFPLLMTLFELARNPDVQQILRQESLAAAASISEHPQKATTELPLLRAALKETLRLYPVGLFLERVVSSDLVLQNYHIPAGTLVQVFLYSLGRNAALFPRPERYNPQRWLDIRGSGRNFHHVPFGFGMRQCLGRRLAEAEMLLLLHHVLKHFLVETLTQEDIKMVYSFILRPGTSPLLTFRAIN
Test: Inhibition of CYP11B2 in human NCI-H295R cells assessed as inhibition of angiotensin-2-induced aldosterone production after 24 hrs by RIA
Assay type: cell-based
pIC50: −log10 of the molar value.
VALUE TYPE: pIC50

N#Cc1ccc([C@@]2(C(=O)OCc3ccc(F)cc3)CCc3cncn32)c(Cl)c1 = 8.82
COc1cc(C#N)ccc1C1CCCc2cncn21 (racemic) = 6.41
Cc1cc(C#N)ccc1[C@H]1CCc2cncn21 = 8.10
c1ccc(-c2ccccc2[C@H]2CCCc3cncn32)cc1 = 7.43

[a] COC(=O)[C@]1(c2ccc(C#N)cc2Cl)CCc2cncn21
[b] COC(=O)[C@]1(c2ccc(C#N)cc2F)CCc2cncn21
[c] N#Cc1ccc([C@H]2CCCc3cncn32)c(-c2ccccc2)c1
[d] N#Cc1ccc([C@H]2CCc3cncn32)c(Br)c1
[e] Fc1ccc(-c2ccccc2[C@H]2CCCCc3cncn32)cc1
Input line: Please order the records by their reported pIC50, lowest number first. Provide the labels, sequenced as the question asks.
Output line: b, c, a, d, e

[1] c1ccc(-c2ccccc2[C@H]2CCc3cncn32)cc1
[2] Fc1ccc(-c2ccccc2[C@H]2CCc3cncn32)cc1
Input line: Please indicate which item has the smaller measured pIC50: 1 versus 2 The response must carry the label of the picked entry.
Output line: 1
